Target: T1, RHPN1, Q8TCX5
T1 sequence (Q8TCX5 508-602, limits assumed, looked up): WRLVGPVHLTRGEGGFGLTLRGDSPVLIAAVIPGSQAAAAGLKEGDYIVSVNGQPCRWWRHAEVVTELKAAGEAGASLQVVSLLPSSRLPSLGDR
Assay: holdup assay
Parameters: key: below the threshold = too weak to quantify, mostly under pKd 3.1 to 4
Settings: plain residues with an end cap or a label only (N-terminal biotin on a linker: ado-ado)
I'd appreciate it if you could supply pKd values for the items below.
Answer with the value's number alone.

State, in one line, measured pKd of DAAHHDESNC [FMNL3, Q8IVF7] 3.75

State, in one line, measured pKd of WAKEKQHTRL [SLC17A1, Q14916] 3.97

State, in one line, measured pKd of TKEIPNCTSV [SORCS3, Q9UPU3] 3.81

State, in one line, measured pKd of FHSIKQSTAV [CRHR1, P34998] 3.79

Numbers sourced from paper PMC9482650.
